# Tested on: SNB-19 CNS
# Test protocol: NCI tumour cell line growth inhibition, 48 h
Entries and their TGI values follow.
Reported endpoint: TGI

INSERT INTO assay_data (compound, reported_endpoint, observed_measurement) VALUES
  ('CCOC(=O)c1c(Cl)c2c(n1Cc1ccccc1)-c1oncc1CCC2', 'TGI', '> 100 µM'),
  ('COC1=CC(=O)C(O)=C(CC2(C)C(C)CCC3(C)C2CCCC3(C)C)C1=O (stereo not drawn)', 'TGI', '19.3 µM'),
  ('COC(=O)N/N=C(\C)c1sc(-c2nc(C)c(/C(C)=N/NC(=O)OC)s2)nc1C', 'TGI', '> 100 µM'),
  ('CC(C)=CCC[C@@H](C)C1=C(N)C(O)=C(C)C(=O)C1=O', 'TGI', '> 75 µM'),
  ('CCOC(=O)c1c(C)n(-c2ccc(C)cc2)c(=O)c2ccccc2c(=O)c2c(=O)ccc(=O)c1=2', 'TGI', '51.7 µM'),
  ('C/C=C1/C=CC2c3[nH]c4ccccc4c3CCN2C1 (stereo not drawn)', 'TGI', '> 400 µM'),
  ('N#Cc1c(CC(=O)O)cc(=O)n2c1[nH]c1ccccc12', 'TGI', '> 100 µM'),
  ('O=C(CC1(O)C(=O)Nc2c(Cl)cc(Cl)cc21)c1cccc([N+](=O)[O-])c1 (stereo not drawn)', 'TGI', '> 100 µM'),
  ('N/C(=N\N=C\c1nc2ccccc2o1)c1cnccn1', 'TGI', '> 100 µM'),
  ('CC1C(OS(=O)(=O)c2ccc3[nH]c(=S)sc3c2)CC2C3(C)CCC2(C(C)C(=O)O)C(O)C13 (stereo not drawn)', 'TGI', '> 100 µM'),
  ('O=C(O)CCC(NC(=O)c1ccc(Nc2nc3ccc(C(F)(F)F)cc3nc2C(=O)O)cc1)C(=O)O (stereo not drawn)', 'TGI', '> 100 µM'),
  ('C/C(=C\c1csc(C)n1)[C@@H]1C[C@@H]2O[C@]2(C)CCC[C@H](C)[C@H](O)[C@@H](C)C(=O)C(C)(C)[C@@H](O)CC(=O)N1', 'TGI', '0.000508 µM'),
  ('CN1S(=O)(=O)N(C)P12(N=P(CP(=NP13(N(C)S(=O)(=O)N1C)N(C)S(=O)(=O)N3C)(c1ccccc1)c1ccccc1)(c1ccccc1)c1ccccc1)N(C)S(=O)(=O)N2C', 'TGI', '> 100 µM'),
  ('NS(=O)(=O)c1cc2c(cc1Cl)NCNS2(=O)=O', 'TGI', '> 100 µM'),
  ('CN(CC(=O)Nc1ccccc1C(=O)O)c1ccccc1', 'TGI', '> 100 µM'),
  ('CCOC(OCC)(OCC)C(Br)CC (stereo not drawn)', 'TGI', '> 100 µM'),
  ('Cn1cc(-c2ccc3c(c2)ncn3-c2cc(NS(=O)(=O)C3CC3)cc(-c3ccc(F)cc3F)c2)cn1', 'TGI', '> 100 µM'),
  ('COc1cc2c(Oc3ccc(-c4cnc(Nc5ccc(F)cc5)n(C)c4=O)cc3F)ccnc2cc1OCCCN1CCOCC1', 'TGI', '4.52 µM'),
  ('Cc1cnc2[nH]c(-c3cccc4ccccc34)cc(=O)c2c1', 'TGI', '> 100 µM'),
  ('O=C(CC1(O)C(=O)Nc2c(Cl)ccc(Cl)c21)c1ccc(Cl)cc1 (stereo not drawn)', 'TGI', '> 100 µM'),
  ('COc1ccc(OC/C(N)=N/NC(=O)c2ccncc2)cc1', 'TGI', '> 100 µM'),
  ('O=C(NC1CCCCC1)c1n[nH]nc1Cl', 'TGI', '> 100 µM'),
  ('CC(=O)O[C@H]([C@H](OC(C)=O)[C@H](C)OC(C)=O)[C@@H](/C=C/[C@H]1CC=CC(=O)O1)OC(C)=O', 'TGI', '> 100 µM'),
  ('COc1ccc(/C=C2\C[C@H]3[C@@H]4CC=C5C[C@@H](O)CC[C@]5(C)[C@H]4CC[C@]3(C)\C2=N\O)cc1', 'TGI', '> 100 µM'),
  ('Cc1nc2ccc(S(=O)(=O)O)cc2c(=O)n1-c1ccc(C(=O)NN2C(=O)C(Cl)C2c2cccs2)cc1 (stereo not drawn)', 'TGI', '> 100 µM'),
  ('O[C@@H]1[C@H](OC2c3ccccc3-c3ccccc32)[C@H](OCc2ccccc2)[C@@H]2OC[C@H]1O2', 'TGI', '> 100 µM'),
  ('COc1ccc(-n2c(=O)c3ccccc3n(Cc3ccc(C(=O)NO)cc3)c2=O)cc1', 'TGI', '18.5 µM'),
  ('CCCCCCCCCCCCOC1C(C(COC2OC(C(O)CO)C3OC(C)(C)OC23)OC(=O)Nc2ccccc2)OC2OC(C)(C)OC21 (stereo not drawn)', 'TGI', '20.3 µM'),
  ('Nc1cc(C(F)(F)F)c(-c2nc(N3CCOCC3)nc(N3CCOCC3)n2)cn1', 'TGI', '44.5 µM'),
  ('COc1ccccc1CNCCCN1C(=O)c2ccc3c4c(ccc(c24)C1=O)C(=O)N(CCCNCc1ccccc1OC)C3=O', 'TGI', '0.347 µM'),
  ('N#CCC(=O)N/N=C\C(O)C(O)C(O)C(O)CO (stereo not drawn)', 'TGI', '> 100 µM'),
  ('N#C[Se]CCN1C(=O)c2ccccc2C1=O', 'TGI', '8.66 µM'),
  ('O=c1c2ccccc2nc2n1CCc1c-2[nH]c2ccccc12', 'TGI', '29.2 µM'),
  ('O=C1C(Cl)=CC2(C=C1Cl)CCN=c1c(O)c3c(c(O)c12)=NC=N3', 'TGI', '> 100 µM'),
  ('CC[C@@H]1CC[C@@H]2[C@H](CC[C@]3(C)[C@@H](O[N+](=O)[O-])CC[C@@H]23)[C@H]1C(C)=O', 'TGI', '> 100 µM'),
  ('N#CCc1nc(-c2cc3ccccc3oc2=O)cs1', 'TGI', '> 100 µM'),
  ('CCCN1C(=O)CN(S(=O)(=O)c2ccc(Cl)cc2)C1=O', 'TGI', '> 100 µM'),
  ('O=C(c1c(F)c(F)c(F)c(F)c1F)n1c(=S)n(C(=O)c2c(F)c(F)c(F)c(F)c2F)c2ccccc21', 'TGI', '> 100 µM');
